# assayName: Cytotoxicity against human RD cells assessed as cell survival at <5 uM after 24 hrs by CCK8 assay relative to control
# Type: cell-based
# measurementSetup: read-out: Activity
observable: viability at 24 h

Exam item: // viability at 24 h lookup, key: CC(=O)OC(CC=C(C)C)C1=CC(=O)c2c(O)ccc(O)c2C1=O (stereo unspecified)
Marked response: > 90%

###

# assayName: Selectivity index, ratio of CC50 for cytotoxicity against human RD cells to EC50 for antiviral activity against Coxsackievirus A16 TA271 infected in human RD cells
# Assay type: toxicity, cell-based
# measurementSetup: read-out: Ratio CC50/EC50
Below, each entry is listed alongside its reported selectivity ratio.

> print(dat)
                                   molecule  result
1  CC(=O)OC(CC=C(C)C)C1=CC(=O)c2c(O)ccc(O)c2C1=O (configuration not stated)     235

Next, consider the following molecule.
Exam item: Any idea what selectivity ratio was measured for NC(=O)c1ncn([C@@H]2O[C@H](CO)[C@@H](O)[C@H]2O)n1 ?
Marked response: 10.3
